system: RARa:RXR (NR concentration 270 nM, RXRa partner concentration 90 nM); assay: PBM binding z-score (relative to random genomic background probes); higher = stronger binding; sequences stand for … in GC…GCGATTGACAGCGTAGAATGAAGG
# PBM binding z-score values compiled below

Worked set:
# primarySequence, readoutName, result
rows = [
    ("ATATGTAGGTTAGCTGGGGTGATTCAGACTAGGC", "PBM binding z-score", 1.31),
    ("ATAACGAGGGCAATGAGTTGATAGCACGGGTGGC", "PBM binding z-score", 0.222),
    ("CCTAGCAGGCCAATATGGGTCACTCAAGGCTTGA", "PBM binding z-score", 1.65),
    ("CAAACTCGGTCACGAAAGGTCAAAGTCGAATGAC", "PBM binding z-score", 6.96),
    ("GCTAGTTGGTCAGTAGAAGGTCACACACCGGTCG", "PBM binding z-score", 3.73),
]

The recorded PBM binding z-score for entry `GCTCGGAGGACAAGGTCAGAGCGTTGTCCGTAGA` equals 2.07

// `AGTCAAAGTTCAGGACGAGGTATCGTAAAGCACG` : PBM binding z-score value = 2.06

Data point: `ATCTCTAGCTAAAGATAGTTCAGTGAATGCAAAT` ; PBM binding z-score = 0.855

* * *

Listed next: entries and their corresponding PBM binding z-score.
tested on: RARb:RXRa (NR concentration 270 nM, RXRa partner concentration 90 nM); assay: PBM binding z-score (relative to random genomic background probes); higher = stronger binding; sequences stand for … in GC…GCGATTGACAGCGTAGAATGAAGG
Could you keep your reply to the number by itself?

Worked examples follow.
# primarySequence, PBM binding z-score
rows = [
    ("TCATATAGGTAAATGCTAGGTGAAAGTACGATCT", 0.64),
    ("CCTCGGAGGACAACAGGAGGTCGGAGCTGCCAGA", 1.55),
]

Next sequence, please.
Per the records, this sequence ( `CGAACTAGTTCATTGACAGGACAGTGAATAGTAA` ) has PBM binding z-score equal to 1.25

* * *

system: RXRa homodimer (NR concentration 180 nM); experiment: PBM binding z-score (relative to random genomic background probes); higher = stronger binding; sequences stand for … in GC…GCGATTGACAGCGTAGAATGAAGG
readoutName: PBM binding z-score
Respond using a number only.

Look over these answered cases.
# primarySequence, tgt, numericValue
records = [
    ("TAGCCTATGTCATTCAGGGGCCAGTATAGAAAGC", "RXRa homodimer (NR concentration 180 nM)", 0.203),
    ("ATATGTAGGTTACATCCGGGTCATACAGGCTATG", "RXRa homodimer (NR concentration 180 nM)", 3.05),
    ("ACTAGTTGGTCAGCTGAGGTCCCACACAATTCGG", "RXRa homodimer (NR concentration 180 nM)", 0.206),
    ("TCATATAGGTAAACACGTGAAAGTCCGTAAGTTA", "RXRa homodimer (NR concentration 180 nM)", 0.661),
    ("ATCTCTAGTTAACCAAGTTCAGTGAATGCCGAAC", "RXRa homodimer (NR concentration 180 nM)", 0.549),
]

Sample `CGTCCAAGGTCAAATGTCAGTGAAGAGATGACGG` ; PBM binding z-score observed: 6.77
